pKd: −log10 of the molar value.
The listing below reports pKd for compounds tested on UniProt:P04049.

Some solved entries appear below for comparison.
compound	tgt	pKd
COc1ccc(NC(=O)Nc2cccc(Oc3ncnc4cc(OC)c(OC)cc34)c2)cc1Cl [Ex 180]	UniProt:P04049	> 6.60
COc1cc2ncnc(Oc3cccc(NC(=O)Nc4cc(C(C)(CF)CF)nn4-c4ccccc4)c3)c2cc1OC [Ex 167]	UniProt:P04049	< 6.00
COc1cc2c(Oc3cccc(NC(=O)Nc4cc(C(C)(C)C)on4)c3)ncnc2cc1OCCCN1CCN(C)CC1 [Ex 28]	UniProt:P04049	> 6.60
COc1cc2ncnc(Oc3cccc(NC(=O)Nc4cc(C(C)(C)C)on4)c3)c2cc1OC[C@@H](O)CN1CCN(C)CC1 [Ex 111]	UniProt:P04049	> 6.60

Per the reported UniProt:P04049 data, COc1cc2ncnc(Oc3cccc(NC(=O)Nc4cc(C5(C(F)(F)F)CCC5)no4)c3)c2cc1OC [Ex 155] has pKd of < 6.00

Per the reported UniProt:P04049 data, COCCOc1cc2ncnc(Oc3cccc(NC(=O)Nc4cc(C(=O)N5CCOCC5)cc(C(F)(F)F)c4)c3)c2cc1OC [Ex 205] has pKd of < 6.00

Per the reported UniProt:P04049 data, COc1cc2ncnc(Oc3cccc(NC(=O)Nc4cc(C(C)(C)C)nn4-c4ccccc4)c3)c2cc1OC [Ex 153] has pKd of < 6.00

Per the reported UniProt:P04049 data, COc1cc2ncnc(Oc3cccc(NC(=O)Nc4cc(C(C)(CF)CF)on4)c3)c2cc1OC [Ex 162] has pKd of > 6.60

* * *

tgt: wild type BRAF kinase (Homo sapiens (Human))
Sequence (P15056 whole entry): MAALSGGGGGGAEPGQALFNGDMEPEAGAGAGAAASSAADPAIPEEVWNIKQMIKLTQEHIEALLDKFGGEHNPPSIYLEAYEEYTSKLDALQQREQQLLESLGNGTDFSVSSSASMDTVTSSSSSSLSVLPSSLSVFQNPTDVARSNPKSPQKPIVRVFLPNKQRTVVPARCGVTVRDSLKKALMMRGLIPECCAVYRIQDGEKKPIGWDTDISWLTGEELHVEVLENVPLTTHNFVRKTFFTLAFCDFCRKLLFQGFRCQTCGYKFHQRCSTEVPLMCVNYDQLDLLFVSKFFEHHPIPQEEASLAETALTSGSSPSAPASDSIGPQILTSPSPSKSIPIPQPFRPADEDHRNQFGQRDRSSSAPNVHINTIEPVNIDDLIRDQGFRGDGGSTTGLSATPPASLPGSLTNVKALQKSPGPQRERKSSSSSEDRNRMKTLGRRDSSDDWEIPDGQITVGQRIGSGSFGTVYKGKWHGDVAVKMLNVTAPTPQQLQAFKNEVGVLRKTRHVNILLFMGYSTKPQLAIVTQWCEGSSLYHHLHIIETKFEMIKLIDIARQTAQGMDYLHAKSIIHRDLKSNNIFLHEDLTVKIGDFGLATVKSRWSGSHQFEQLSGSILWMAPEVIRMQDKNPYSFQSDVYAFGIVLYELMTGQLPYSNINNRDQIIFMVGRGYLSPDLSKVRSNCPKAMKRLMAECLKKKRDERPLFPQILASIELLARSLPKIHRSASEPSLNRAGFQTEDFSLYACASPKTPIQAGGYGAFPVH
experimental_context: read-out: BRAF WT Kd, class symbols
// values below are reported Kd

COc1cc2ncnc(Oc3cccc(NC(=O)Nc4cc(C5CCCC5)on4)c3)c2cc1OC < 250 nM
COc1cc2ncnc(Sc3cccc(NC(=O)Nc4cc(C(C)(C)C)on4)c3)c2cc1OCCS(C)(=O)=O < 250 nM
COc1ccc2c(Sc3cccc(NC(=O)Nc4cc(C(C)(C)C)on4)c3)ncnc2c1 > 1000 nM

Just so you know, measured Kd for COc1ccc2ncnc(Sc3cccc(NC(=O)Nc4cc(C(C)(C)C)on4)c3)c2c1 came out at > 1000 nM

Just so you know, measured Kd for COc1cc2ncnc(Sc3cccc(NC(=O)Nc4cc(C(F)(F)F)nn4-c4ccccc4)c3)c2cc1OC came out at > 1000 nM

Just so you know, measured Kd for COc1cc2ncnc(Sc3cccc(NC(=O)Nc4cc(C(C)(C)C)on4)c3)c2cc1OCCN1CCCCC1 came out at > 1000 nM

Just so you know, measured Kd for COc1cc2ncnc(Sc3cccc(NC(=O)Nc4ccc(Cl)c(C(F)(F)F)c4)c3)c2cc1OC came out at > 1000 nM

* * *

tgt: RAF kinases (Homo sapiens (Human))
Sequence (P04049 whole entry): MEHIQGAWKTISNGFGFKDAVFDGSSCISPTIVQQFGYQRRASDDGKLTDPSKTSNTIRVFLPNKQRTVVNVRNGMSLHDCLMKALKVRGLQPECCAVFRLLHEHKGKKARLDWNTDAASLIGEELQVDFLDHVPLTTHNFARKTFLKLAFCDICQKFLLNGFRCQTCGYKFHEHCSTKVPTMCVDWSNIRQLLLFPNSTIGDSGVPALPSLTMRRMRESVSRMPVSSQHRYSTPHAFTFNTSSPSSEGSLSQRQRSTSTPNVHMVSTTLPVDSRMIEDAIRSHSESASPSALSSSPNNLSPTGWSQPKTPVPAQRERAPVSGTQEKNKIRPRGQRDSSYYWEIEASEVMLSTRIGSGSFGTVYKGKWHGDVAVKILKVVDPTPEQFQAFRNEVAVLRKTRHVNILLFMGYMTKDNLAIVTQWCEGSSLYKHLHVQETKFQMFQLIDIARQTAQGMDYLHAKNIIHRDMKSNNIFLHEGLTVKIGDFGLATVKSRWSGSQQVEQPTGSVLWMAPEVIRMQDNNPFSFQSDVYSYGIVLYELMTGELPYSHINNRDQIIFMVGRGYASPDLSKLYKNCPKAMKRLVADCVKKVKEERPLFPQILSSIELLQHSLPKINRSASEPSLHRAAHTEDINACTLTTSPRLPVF
// values below are reported Kd

Some solved entries appear below for comparison.
CCOc1cc2ncnc(Sc3cccc(NC(=O)Nc4cc(C(C)(C)C)on4)c3)c2cc1OCC > 1 µM
COc1cc2ncnc(Sc3cccc(NC(=O)Nc4cccc(C(C)(C)C)c4)c3)c2cc1OC < 0.25 µM
COc1cc2ncnc(Oc3cccc(NC(=O)Nc4cc(C(C)(C)CO)on4)c3)c2cc1OC < 0.25 µM
COc1cc2ncnc(Sc3cccc(NC(=O)Nc4cc(C(C)(C)C)nn4-c4ccccc4)c3)c2cc1OC > 1 µM
COc1cc2ncnc(Sc3cccc(NC(=O)Nc4cc(C(C)(CF)CF)on4)c3)c2cc1OC < 0.25 µM
COc1cc2ncnc(Oc3cccc(NC(=O)Nc4cc(C(C)(C)C)on4)c3)c2cc1O < 0.25 µM
COc1cc2ncnc(Sc3cccc(NC(=O)Nc4ccc(Cl)c(C(F)(F)F)c4)c3)c2cc1OC > 1 µM

Query molecule follows.
Per the reported RAF kinases (Homo sapiens (Human)) data, COc1cc2ncnc(Sc3cccc(NC(=O)Nc4ccc(C(F)(F)F)c(OC)c4)c3)c2cc1OC has Kd of > 1 µM

* * *

tgt: wild type BRAF kinase (Homo sapiens (Human))
experimental_context: read-out: BRAF WT Kd, class symbols
pKd: −log10 of the molar value.
parameter_measured: pKd

Some solved entries appear below for comparison.
molecule	parameter_measured	test_value
COc1cc2ncnc(Oc3cccc(NC(=O)Nc4cc(C(C)(CF)CF)nn4-c4ccccc4)c3)c2cc1OC	pKd	< 6.00
CCOc1cc2c(Oc3cccc(NC(=O)Nc4cc(C(C)(C)C)on4)c3)ncnc2cc1OC	pKd	< 6.00
CCOc1cc2ncnc(Sc3cccc(NC(=O)Nc4cc(C(C)(C)C)on4)c3)c2cc1OCC	pKd	< 6.00
COc1cc2ncnc(Sc3cccc(NC(=O)Nc4ccc(C(C)(C)C)cc4)c3)c2cc1OC	pKd	< 6.00

Just so you know, measured pKd for COc1cc2ncnc(Oc3cccc(NC(=O)Nc4cc(C(F)(F)F)nn4-c4ccccc4)c3)c2cc1OC came out at < 6.00

Just so you know, measured pKd for CCOC(=O)Cn1nc(C(C)(C)C)cc1NC(=O)Nc1cccc(Oc2ncnc3cc(OC)c(OC)cc23)c1 came out at < 6.00

Just so you know, measured pKd for CC(C)(C)c1cc(NC(=O)Nc2cccc(Sc3ncnc4cc(F)c(F)cc34)c2)no1 came out at < 6.00

Just so you know, measured pKd for COc1cc2ncnc(Oc3cc(NC(=O)Nc4cc(C(C)(C)C)on4)ccc3Cl)c2cc1OC came out at < 6.00

Just so you know, measured pKd for COc1cc2ncnc(Oc3cccc(NC(=O)Nc4cc(C(C)C)on4)c3)c2cc1OC came out at > 6.60

Just so you know, measured pKd for COCCOc1cc2ncnc(Oc3cccc(NC(=O)Nc4cc(C(=O)N5CCOCC5)cc(C(F)(F)F)c4)c3)c2cc1OC came out at < 6.00

Just so you know, measured pKd for COc1cc2ncnc(Oc3cccc(NC(=O)Nc4cc(C(=O)N5CCOCC5)cc(C(F)(F)F)c4)c3)c2cc1OC came out at < 6.00

Just so you know, measured pKd for COc1cc2ncnc(Sc3cccc(NC(=O)Nc4cc(C5(C(F)(F)F)CCC5)no4)c3)c2cc1OC came out at < 6.00

Just so you know, measured pKd for COc1cc2ncnc(Oc3cccc(NC(=O)Nc4cc(CN5CCOCC5)cc(C(F)(F)F)c4)c3)c2cc1OC came out at < 6.00

* * *

System: panel of 290 distinct kinases (321 in the larger panel), excluding mutant variants
experimental_context: kinase selectivity score, value marked * (larger kinase panel); class symbols
parameter_measured: S35

Some solved entries appear below for comparison.
molecule	S35
COc1cc2ncnc(Sc3cccc(NC(=O)Nc4cc(C(F)(F)F)nn4-c4ccc(F)cc4)c3)c2cc1OC [Ex 198]	C* (0.20 < C ≦ 0.40)
COc1cc2ncnc(Sc3cccc(NC(=O)Nc4cc(C5(C(F)(F)F)CCC5)no4)c3)c2cc1OC [Ex 156]	C* (0.20 < C ≦ 0.40)
COc1cc2ncnc(Oc3cccc(NC(=O)Nc4cc(C5CCCC5)on4)c3)c2cc1OC [Ex 135]	C* (0.20 < C ≦ 0.40)
COc1cc2ncnc(Sc3cccc(NC(=O)Nc4cc(C(C)(C)C)nn4C)c3)c2cc1OC [Ex 157]	C* (0.20 < C ≦ 0.40)
COc1ccc(NC(=O)Nc2cccc(Oc3ncnc4cc(OC)c(OC)cc34)c2)cc1Cl [Ex 180]	B* (0.10 < B ≦ 0.20)
COc1cc2ncnc(Sc3cccc(NC(=O)Nc4cc(C(C)(CF)CF)no4)c3)c2cc1OC [Ex 160]	C* (0.20 < C ≦ 0.40)
COCCOc1cc2ncnc(Oc3cccc(NC(=O)Nc4cc(C(=O)N5CCOCC5)cc(C(F)(F)F)c4)c3)c2cc1OC [Ex 205]	C* (0.20 < C ≦ 0.40)
COc1cc2ncnc(Oc3cccc(NC(=O)Nc4cc(CN5CCOCC5)cc(C(F)(F)F)c4)c3)c2cc1OC [Ex 151]	C* (0.20 < C ≦ 0.40)
COc1cc2ncnc(Sc3cccc(NC(=O)Nc4cc(C(C)(CF)CF)nn4-c4ccccc4)c3)c2cc1OC [Ex 196]	D* (D > 0.40)
COc1cc2ncnc(Sc3cccc(NC(=O)Nc4cc(C(C)(CF)CF)on4)c3)c2cc1OC [Ex 191]	C* (0.20 < C ≦ 0.40)

Just so you know, measured S35 for COc1cc2ncnc(Sc3cccc(NC(=O)Nc4cc(C(F)(F)F)nn4-c4ccccc4)c3)c2cc1OC [Ex 192] came out at C* (0.20 < C ≦ 0.40)

Just so you know, measured S35 for COc1cc2ncnc(Sc3cccc(NC(=O)Nc4ccc(C(F)(F)F)cc4)c3)c2cc1OC [Ex 184] came out at C* (0.20 < C ≦ 0.40)

Just so you know, measured S35 for COc1cc2ncnc(Oc3cccc(NC(=O)Nc4cc(C(C)(C)F)on4)c3)c2cc1OC [Ex 136] came out at C* (0.20 < C ≦ 0.40)

Just so you know, measured S35 for COc1cc2ncnc(Oc3cccc(NC(=O)Nc4cc(C(C)(C)C)nn4-c4ccccc4)c3)c2cc1OC [Ex 153] came out at D* (D > 0.40)

Just so you know, measured S35 for COc1cc2ncnc(Oc3cccc(NC(=O)Nc4cc(C5(C(F)(F)F)CC5)nn4-c4ccccc4)c3)c2cc1OC [Ex 137] came out at D* (D > 0.40)

Just so you know, measured S35 for COc1cc2ncnc(Oc3cccc(NC(=O)Nc4cc(C(C)(F)F)no4)c3)c2cc1OC [Ex 152] came out at C* (0.20 < C ≦ 0.40)
